Could you please report measured koff for the items listed next?
molecular target: T1, human CD47 (recombinant protein, construct not stated) (human, UniProt Q08722 19-141); test: BLI (BLItz), IgG1 captured on anti-human Fc tips, human CD47 as analyte, 1:1 global fit
T1 construct: also called hCD47; human CD47 protein
Express it in s⁻¹; write the number only.

Dear colleague, please send me the reported koff for 11A1H10-IgG1 (antibody, V domains shown, Humanised version of clone 1-1-A1, IgG1/kappa; also called 1A11H10) VH: QVQLVQSGAEVKKPGASVKVSCKASGYTFTGYVIHWVRQAPGQGLEWMGYINPYNGGTNYAQKFKGRVTLTSDTSTTTAYMELSRLRSEDTAVYYCASGGYYTMDYWGQGTLVTVSS VL: DVVMTQSPLSLPVTLGQPASISCRSSQHLEYSNGYSYLHWYQQRPGQSPRLLIYKVSNRDSGVPDRFSGSGSGTDFTLKISRVEAEDVGVYYCSQSTHVPYTFGGGTKVEIKR when you can.
0.00898

Answer with reported koff of 11A1H3-IgG1 (antibody, V domains shown, Humanised version of clone 1-1-A1, IgG1/kappa; also called 1A11H3) VH: QVQLVQSGAEVKKPGASVKVSCKASGYTFTNYVMHWVRQAPGQGLEWMGYINPYNDGTKSNEKFQGRVTLTSDTSTSTAYMELSSLRSEDTAVYYCASGGYYTMDYWGQGTLVASTK VL: DVVMTQSPLSLPVTLGQPASISCRSSQHLEYSNGYSYLHWYQQRPGQSPRLLIYKISNRFSGVPDRFSGSGSGTDFTLKISRVEAEDVGVYYCSQSTHVPYTFGGGTKVEIKR
0.000904

// fetch koff given entry 11A1H6-IgG1 (antibody, V domains shown, Humanised version of clone 1-1-A1, IgG1/kappa; also called 1A11H6) VH: QVQLVQSGAEVKKPGASVKVSCKASGYTFTNYVIHWVRQAPGQGLEWMGYINPYNDGTKYNQKFKGRVTLTSDTSTTTAYMELSRLRSDDTAVYYCASGGYYTMDYWGQGTLVASTK VL: DVVMTQSPLSLPVTLGQPASISCRSSQHLEYSQGYSYLHWYQQRPGQSPRLLIYKVSNRDSGVPDRFSGSGSGTDFTLKISRVEAEDVGVYYCSQSTHVPYTFGGGTKVEIKR
0.0144

Quickly give me recorded koff for 11A1H9-IgG1 (antibody, V domains shown, Humanised version of clone 1-1-A1, IgG1/kappa; also called 1A11H9) VH: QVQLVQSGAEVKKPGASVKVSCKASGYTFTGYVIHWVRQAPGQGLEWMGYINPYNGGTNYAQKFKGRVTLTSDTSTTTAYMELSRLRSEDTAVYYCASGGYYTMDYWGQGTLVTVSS VL: DVVMTQSPLSLPVTLGQPASISCRSSQHLEYSTGYSYLHWYQQRPGQSPRLLIYKVSNRDSGVPDRFSGSGSGTDFTLKISRVEAEDVGVYYCSQSTHVPYTFGGGTKVEIKR
0.00635

Write down koff measured for item anti-CD47 clone 1-1-A1_BM IgG1 (antibody, V domains shown) VH: QVQLQQSGPDLKKPGASVKVSCKVSGYTFTNYVIHWVRQKPGQGLEWMGYINPYNDGTKSNEKFKGKATLTSDKSSTSAYMELSSLTSEDTAVYYCASGGYYTMDYWGQGTSVTVSS VL: DVVMTQTPLSLPVTLGDQASISCRSSQHLEYSNGYSYLHWYQQRPGQSPQLLIYKISNRFSGVPDRFSGSGSGTDFTLKISRVEAEDLGVYYCSQSTHVPYTFGGGTKLEIKR
0.00121

Please report the measured koff for 11A1H5-IgG1 (antibody, V domains shown, Humanised version of clone 1-1-A1, IgG1/kappa; also called 1A11H5) VH: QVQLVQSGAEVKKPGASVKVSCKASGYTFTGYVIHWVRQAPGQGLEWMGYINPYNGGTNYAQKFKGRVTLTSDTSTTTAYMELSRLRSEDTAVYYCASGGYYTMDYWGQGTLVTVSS VL: DVVMTQSPLSLPVTLGQPASISCRSSQHLEYSNGYSYLHWYQQRPGQSPRLLIYKISNRFSGVPDRFSGSGSGTDFTLKISRVEAEDVGVYYCSQSTHVPYTFGGGTKVEIKR
0.0012
